# testedSystem: c-kit (Homo sapiens (Human))
# Sequence (P10721 26-976): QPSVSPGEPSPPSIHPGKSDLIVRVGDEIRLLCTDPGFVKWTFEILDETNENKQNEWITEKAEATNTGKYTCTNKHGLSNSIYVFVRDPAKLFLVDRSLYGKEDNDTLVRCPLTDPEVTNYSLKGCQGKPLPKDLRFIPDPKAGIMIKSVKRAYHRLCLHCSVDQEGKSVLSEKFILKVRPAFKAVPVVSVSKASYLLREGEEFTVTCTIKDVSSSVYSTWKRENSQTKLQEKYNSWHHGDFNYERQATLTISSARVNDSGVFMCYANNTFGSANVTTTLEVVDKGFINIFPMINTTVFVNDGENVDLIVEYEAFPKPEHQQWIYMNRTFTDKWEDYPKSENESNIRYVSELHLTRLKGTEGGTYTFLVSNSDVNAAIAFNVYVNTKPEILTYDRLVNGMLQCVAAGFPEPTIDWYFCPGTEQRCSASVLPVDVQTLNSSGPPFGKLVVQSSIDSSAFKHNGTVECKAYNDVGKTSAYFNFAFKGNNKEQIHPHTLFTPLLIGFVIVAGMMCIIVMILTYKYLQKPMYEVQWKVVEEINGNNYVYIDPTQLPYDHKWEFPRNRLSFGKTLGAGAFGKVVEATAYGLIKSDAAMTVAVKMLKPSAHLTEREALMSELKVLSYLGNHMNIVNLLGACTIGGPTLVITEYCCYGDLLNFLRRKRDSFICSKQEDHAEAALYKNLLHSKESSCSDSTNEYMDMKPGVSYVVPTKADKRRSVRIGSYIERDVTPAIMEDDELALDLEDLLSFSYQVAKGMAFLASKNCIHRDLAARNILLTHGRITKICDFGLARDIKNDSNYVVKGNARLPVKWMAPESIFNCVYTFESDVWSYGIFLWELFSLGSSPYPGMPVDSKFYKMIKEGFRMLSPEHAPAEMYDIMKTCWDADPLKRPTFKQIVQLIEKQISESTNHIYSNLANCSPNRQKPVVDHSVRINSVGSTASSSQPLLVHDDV
# assayExplanation: Mo7e cell proliferation assay (SCF dependent proliferation)
# Format: cell-based
# conditionSummary: Mo7e cells stimulated with human recombinant SCF, 48 hours, 1% FBS
propertyName: IC50 (nM)

Illustrative cases are given below, each with its answer.
1) Cc1ccc(-c2noc(C3CC(F)(F)C3)n2)cc1NC(=O)c1cnc2ccc(CN3CCOC3=O)cn12 [F154]
365
2) Cc1ccc(-c2noc(C3CC4(C3)OCCO4)n2)cc1NC(=O)c1cnc2ccccn12 [F8]
55
3) Cc1ccc(-c2noc(C3CC(=NO)C3)n2)cc1NC(=O)c1cnc2ccccn12 (centres unmarked) [F4]
22

a: Cc1ccc(-c2noc(C3CC(=O)C3)n2)cc1NC(=O)c1cnc2ccccn12 [F121]
b: Cc1ccc(-c2noc(C3CCC3)n2)cc1NC(=O)c1cnc2ccc(COCC(F)(F)F)cn12 [F86]
c: Cc1ccn2c(C(=O)Nc3cc(-c4noc(COC5CC(F)(F)C5(F)F)n4)ccc3C)cnc2c1 (centres unmarked) [F102]
d: Cc1ccc(-c2noc(C3CC(F)(F)C3)n2)cc1NC(=O)c1cnc2ccc(COCC(F)F)cn12 [F77]
Req: Ordering criterion: IC50; begin with the maximum. Answer format: the labels, ordered as requested.
Resp: a, b, d, c

###

# testedSystem: c-kit (Homo sapiens (Human))
# assayExplanation: Mo7e cell proliferation assay (SCF dependent proliferation)
# Type: cell-based
# conditionSummary: Mo7e cells stimulated with human recombinant SCF, 48 hours, 1% FBS
propertyName: IC50 (nM)

1. O=C(Nc1cc(-c2noc(C3CCC3)n2)ccc1F)c1cnc2ccccn12
151
2. Cc1ccc(-c2noc([C@H]3C[C@@H]3F)n2)cc1NC(=O)c1cnc2ccccn12 [F91]
20
3. Cc1ccc(-c2noc([C@H]3C[C@H](N)C3)n2)cc1NC(=O)c1cnc2ccccn12
109
4. COCC1(c2nc(-c3ccc(C)c(NC(=O)c4cnc5ccc(F)cn45)c3)no2)CCC1
86
5. Cc1ccc(C(=O)NC2CC(F)(F)C2)cc1NC(=O)c1cnc2ccccn12
24
6. Cc1ccc(-c2noc(C3CC4(C3)OCCCO4)n2)cc1NC(=O)c1cnc2ccccn12
52

a: C=C1CC(c2nc(-c3ccc(F)c(NC(=O)c4cnc5ccccn45)c3)no2)C1
b: Cc1ccc(-c2noc(C3CC(F)(F)C3)n2)cc1NC(=O)c1cnc2ccc(COCCF)cn12 [F176]
c: Cc1ccc(-c2noc(C3CC(F)(F)C3)n2)cc1NC(=O)c1cnc2ccc(-c3cnn(CC(C)(C)O)c3)cn12
d: Cc1ccc(-c2noc(CNC(=O)OC3(C)CC3)n2)cc1NC(=O)c1cnc2cc(C(F)(F)F)ccn12
e: COCCO[C@H]1C[C@@H](c2nc(-c3ccc(C)c(NC(=O)c4cnc5ccccn45)c3)no2)C1
Req: Ascending sort, IC50. Answer format: the labels, ordered as requested.
Resp: c, e, b, a, d
(c: 6 nM, e: 25 nM, b: 67 nM, a: 103 nM, d: 391 nM)

1: Cc1ccc(-c2noc(C3CC(F)(F)C3)n2)cc1NC(=O)c1cnc2ccc(-n3ccnc3)cn12
2: O=C(Nc1cc(-c2noc(C3CC(F)(F)C3)n2)ccc1F)c1cnc2ccccn12
3: Cc1ccc(-c2noc(C3CC(F)(F)C3)n2)cc1NC(=O)c1cnc2ccc(CCC(C)(C)O)cn12
Req: Ordering criterion: IC50; begin with the maximum. Answer format: the labels, ordered as requested.
Resp: 2, 1, 3
(2: 144 nM, 1: 78 nM, 3: 31 nM)

I: Cc1ccc(-c2noc(C3CC3)n2)cc1NC(=O)c1cnc2ccccn12
II: Cc1ccc(-c2noc(C3(F)CCC3)n2)cc1NC(=O)c1cnc2ccccn12
III: Cc1ccc(-c2noc(C3CC(n4cncn4)C3)n2)cc1NC(=O)c1cnc2ccccn12 (stereo not drawn)
IV: Cc1ccc(-c2noc(C3CC4(CC(=O)C4)C3)n2)cc1NC(=O)c1cnc2ccccn12
V: Cc1ccc(-c2noc([C@H]3C[C@H](NC(=O)OC(C)(C)C)C3)n2)cc1NC(=O)c1cnc2ccccn12
Req: Ascending sort, IC50. Answer format: the labels, ordered as requested.
Resp: IV, I, II, III, V

A: Cc1ccc(-c2noc(C3(CO)CC3)n2)cc1NC(=O)c1cnc2ccccn12
B: Cc1ccc(-c2noc(C3(NS(C)(=O)=O)CCC3)n2)cc1NC(=O)c1cnc2ccccn12
C: Cc1nnc(-c2ccc3ncc(C(=O)Nc4cc(-c5noc(C6CC(F)(F)C6)n5)ccc4C)n3c2)[nH]1
D: Cc1ccc(-c2noc(C3CC(F)(F)C3)n2)cc1NC(=O)c1cnc2ccc(-c3cscn3)cn12
E: [2H]C([2H])([2H])O[C@H]1C[C@@H](c2nc(-c3ccc(C)c(NC(=O)c4cnc5ccccn45)c3)no2)C1
Req: Ascending sort, IC50. Answer format: the labels, ordered as requested.
Resp: E, D, C, B, A
(E: 9 nM, D: 13 nM, C: 55 nM, B: 95 nM, A: 137 nM)
